I'd be grateful if you could share measured pKi for these entries.
Kindly note that pKi refers to -log10 of the concentration in mol/L and answer with the value alone.

Inquiry: Look up pKi with UniProt:P30543 for this molecule: "CCCCNS(=O)(=O)c1ccc(-c2nc3c([nH]2)c(=O)n(C)c(=O)n3C)cc1"
Sequence (P30543 whole entry): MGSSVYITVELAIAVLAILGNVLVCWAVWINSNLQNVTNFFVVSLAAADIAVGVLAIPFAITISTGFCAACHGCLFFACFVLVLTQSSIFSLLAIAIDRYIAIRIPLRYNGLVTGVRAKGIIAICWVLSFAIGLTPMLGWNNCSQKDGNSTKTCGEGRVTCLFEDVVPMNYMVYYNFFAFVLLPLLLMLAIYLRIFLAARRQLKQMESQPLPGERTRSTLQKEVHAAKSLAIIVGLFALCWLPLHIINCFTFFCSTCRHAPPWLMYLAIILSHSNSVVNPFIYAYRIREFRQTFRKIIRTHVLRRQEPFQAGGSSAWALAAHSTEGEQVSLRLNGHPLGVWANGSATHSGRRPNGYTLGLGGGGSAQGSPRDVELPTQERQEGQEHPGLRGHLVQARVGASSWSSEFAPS
Reply text: 6.78

Inquiry: Hello, I am looking for reported pKi with UniProt:P30543 for "Cn1c(=O)c2nc(-c3ccc(S(=O)(=O)NCC(=O)O)cc3)[nH]c2n(C)c1=O" . Could you help?
Reply text: 6.74

Inquiry: What pKi appears in the records for this molecule with UniProt:P30543? "CCCn1c(=O)[nH]c2[nH]c(-c3ccc(S(=O)(=O)NCc4ccccc4)cc3)nc2c1=O"
Reply text: 7.57

Inquiry: Lab note: need pKi with UniProt:P30543 for entry "CC(C)NS(=O)(=O)c1ccc(-c2nc3c([nH]2)c(=O)n(C)c(=O)n3C)cc1" , please look it up.
Reply text: 6.55

Inquiry: // lookup pKi | system=UniProt:P30543 | key= "Cn1c(=O)c2[nH]c(-c3ccc(S(=O)(=O)NCCO)cc3)nc2n(C)c1=O"
Reply text: 6.46

----------
Biological target: Adenosine receptor A2b (Homo sapiens, UniProt P29275)
Sequence (P29275 whole entry): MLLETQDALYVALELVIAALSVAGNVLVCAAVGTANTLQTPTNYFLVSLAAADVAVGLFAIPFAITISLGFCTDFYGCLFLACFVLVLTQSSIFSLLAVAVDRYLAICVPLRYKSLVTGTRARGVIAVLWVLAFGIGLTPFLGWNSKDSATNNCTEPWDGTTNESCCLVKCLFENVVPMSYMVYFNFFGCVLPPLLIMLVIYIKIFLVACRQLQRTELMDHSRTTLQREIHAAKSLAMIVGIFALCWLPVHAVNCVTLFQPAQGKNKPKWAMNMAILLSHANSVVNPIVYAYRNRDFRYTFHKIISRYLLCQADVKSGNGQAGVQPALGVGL
Assay: Displacement of [3H]PSB298 from human recombinant adenosine A2B receptor expressed in CHO cells
Measured parameter: pKi
FYI, pKi means -log10 of a concentration in mol per litre.

Inquiry: Can you share its pKi? I mean this molecule: "CCCCNS(=O)(=O)c1ccc(-c2nc3c([nH]2)c(=O)n(C)c(=O)n3C)cc1"
Reply text: 6.91

Inquiry: Entry "CCCn1c(=O)[nH]c2nc(-c3ccc(S(=O)(=O)NCC(=O)O)cc3)[nH]c2c1=O" has what pKi?
Reply text: 7.00

Inquiry: Query (molecule): "Cn1c(=O)c2[nH]c(-c3ccc(S(=O)(=O)NCCO)cc3)nc2n(C)c1=O" ; field requested: pKi
Reply text: 6.60

----------
Please go through the items and note down their pKi.
Biological target: Adenosine receptor A1 (Rattus norvegicus, UniProt P25099)
Sequence (P25099 whole entry): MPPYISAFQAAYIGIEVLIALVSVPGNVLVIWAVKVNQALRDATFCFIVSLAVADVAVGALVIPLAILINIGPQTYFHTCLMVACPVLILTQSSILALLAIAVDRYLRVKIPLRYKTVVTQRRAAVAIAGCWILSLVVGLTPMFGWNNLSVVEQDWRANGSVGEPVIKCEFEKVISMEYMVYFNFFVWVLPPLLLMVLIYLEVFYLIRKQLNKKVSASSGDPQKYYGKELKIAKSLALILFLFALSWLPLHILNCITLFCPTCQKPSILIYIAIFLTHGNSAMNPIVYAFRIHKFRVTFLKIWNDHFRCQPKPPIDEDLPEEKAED
Conceptually, pKi converts a concentration in mol/L into minus its log10.

Inquiry: # query: pKi of entry "Cn1c(=O)c2nc(-c3ccc(S(=O)(=O)NCC(=O)O)cc3)[nH]c2n(C)c1=O"
Reply text: 7.19

Inquiry: Any idea what its pKi is? The compound is "CCCn1c(=O)[nH]c2[nH]c(-c3ccc(S(=O)(=O)NCCc4ccccc4)cc3)nc2c1=O"
Reply text: 8.00

Inquiry: Which pKi is reported for this compound? "Cn1c(=O)c2[nH]c(-c3ccc(S(=O)(=O)NCCc4ccccc4)cc3)nc2n(C)c1=O"
Reply text: 7.92

Inquiry: Request the reported pKi associated with "CCCn1c(=O)[nH]c2[nH]c(-c3ccc(S(=O)(=O)NCc4ccccc4)cc3)nc2c1=O"
Reply text: 8.34

Inquiry: Need pKi of "Cn1c(=O)c2[nH]c(-c3ccc(S(=O)(=O)NCCO)cc3)nc2n(C)c1=O" , thanks.
Reply text: 7.01
